Assay: NCI Yeast Anticancer Drug Screen. Data for the rad52 strain (AID 147);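 also: 0% = growth of vehicle-treated control cultures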
Details: S. cerevisiae rad52 mutant growth inhibition; at 1.2 µM
Experimental: Growth inhibition of yeast strains with defined genetic alterations is measured as a screen for potential anti-cancer activity. Selected strains with alterations in DNA damage repair or cell cycle control were exposed to compounds and growth inhibition was measured relative to vehicle treated controls. The strain used in this assay is rad52
Compounds without any hit were thinned out: in the full panel of roughly 79,000, 15% have a hit. The source made the active and inactive calls. Rule as the data show it: active = growth inhibition above about 70%; inactive = the rest.
Please state which outcome applies, choosing from y (active), n (inactive)

Solved entries (count: 2):
MOLECULE	LABEL
C(=N/NC1=NCCN1)/c1c2ccccc2c(/C=N\NC2=NCCN2)c2ccccc12	y
COc1cc(/C=C/c2sc3ccccc3[n+]2C)ccc1N(C)C	n

GET /call?item= OCCN(CCO)c1ccc2c(c1)Cc1ccccc1-2 returns the recorded outcome of this test. n

GET /call?item= CN(C)CC1CCCc2ccccc2C1=O (configuration not stated) returns the recorded outcome of this test. n

GET /call?item= N#C/C(=C1C=C(Br)/C(=N\O)C=C\1Cl)c1cccc2ccccc12 returns the recorded outcome of this test. n

GET /call?item= Oc1ccccc1N=Cc1ccc(Cl)cc1 returns the recorded outcome of this test. n

###

assay: NCI Yeast Anticancer Drug Screen. Data for the rad14 strain (AID 159);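 also: 0% = growth of vehicle-treated control cultures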; settings: S. cerevisiae rad14 strain growth inhibition; at 100.0 µM; stronger effect = higher value
About 79,000 compounds went through this panel and 15% of them were active in at least one assay; those are over-represented in the sample as a whole. Calls of active or inactive are those of the source. Rule as the data show it: active = growth inhibition above about 70%; inactive = the rest.
growth inhibition listing for selected molecules.

Example cases with answers are listed next.
MOLECULE	growth inhibition
O=NN(CCCl)C(=O)NCCCl	11% (inactive)
CCC(NC(C)c1ccccc1)C(=O)c1ccc(OCc2ccccc2)c(OCc2ccccc2)c1 (configuration not stated)	-12% (inactive)

Reported growth inhibition, molecule Clc1cc(Cc2ccc(N=C/C=C/c3ccccc3)c(Cl)c2)ccc1N=C/C=C\c1ccccc1 : ____ 19% (inactive)

Reported growth inhibition, molecule Cc1ccc(Nc2n[nH]c(=S)s2)cc1 : ____ 95% (active)

Reported growth inhibition, molecule CNc1nc(C)nc2c1cnn2-c1ccc([N+](=O)[O-])cc1 : ____ 25% (inactive)

Reported growth inhibition, molecule Nc1nc(N)c2c(n1)CCC(S(=O)(=O)c1ccc3ccccc3c1)C2 (configuration not stated) : ____ -4% (inactive)

Reported growth inhibition, molecule O=Nn1c2ccccc2c2cc([N+](=O)[O-])ccc21 : ____ 93% (active)

Reported growth inhibition, molecule COCCCN(Cc1cc(OC)c(OC)c(OC)c1)C(=S)Nc1cccc(Cl)c1 : ____ 15% (inactive)

Reported growth inhibition, molecule CN(NC(=O)/C(=C/c1ccc(O)cc1)NC(=O)c1ccccc1)c1ccnc2cc(Cl)ccc12 : ____ 60% (inactive)

Reported growth inhibition, molecule CN(N=O)c1ccc(/C=C/c2ccnc3ccccc23)cc1 : ____ 71% (active)

Reported growth inhibition, molecule COc1ccc2c(c1)[nH]c1c(/C=C/c3ccccc3)nccc12 : ____ 97% (active)

Reported growth inhibition, molecule C=Cc1cnc([N+](=O)[O-])n1C : ____ 98% (active)

Reported growth inhibition, molecule O=C(Nc1ccc2c(c1)Cc1c-2ccc([N+](=O)[O-])c1F)C(F)(F)F : ____ 2% (inactive)
